# STUDY_SYSTEM: T1, rhNR10 (recombinant human NR10) (human, UniProt Q8NI17 20-519, limits assumed)
# T1 construct: also called IL-31 receptor; IL31RA
# T1 sequence: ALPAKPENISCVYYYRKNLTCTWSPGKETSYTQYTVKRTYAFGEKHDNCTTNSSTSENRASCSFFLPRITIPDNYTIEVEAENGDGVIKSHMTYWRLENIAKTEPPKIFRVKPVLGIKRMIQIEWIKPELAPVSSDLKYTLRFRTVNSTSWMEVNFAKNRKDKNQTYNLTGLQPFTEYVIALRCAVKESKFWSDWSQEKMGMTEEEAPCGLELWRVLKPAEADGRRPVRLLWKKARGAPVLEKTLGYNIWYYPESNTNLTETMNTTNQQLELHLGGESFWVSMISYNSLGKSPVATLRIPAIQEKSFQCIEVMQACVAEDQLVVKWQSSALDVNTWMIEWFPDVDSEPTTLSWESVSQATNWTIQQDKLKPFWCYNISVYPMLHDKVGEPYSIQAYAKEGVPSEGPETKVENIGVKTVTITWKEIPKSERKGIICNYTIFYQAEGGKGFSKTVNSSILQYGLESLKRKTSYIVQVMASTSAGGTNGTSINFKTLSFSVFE
# PROCEDURE_DETAILS: SPR, Biacore T100; antibody captured on Protein A, rhNR10 as analyte
Documented kon across a set of binders

# BINDER, kon / M⁻¹ s⁻¹
data = [
    ("Ha204L0 (Ha204-SKSC / L0) (antibody, V domains shown) VH: QVQLVQSGAEVKKPGASVKVSCKASGYTFTGYIMNWVRQAPGQGLEWMGLINPYNGGTDYNQKFKGRVTITADESTSTAYMELSSLRSEDTAVYYCARDGYDDGPYTMDYWGQGTLVTVSS VL: DIQMTQSPSSLSASVGDRVTITCRTSENIYSFLAWYQQKPGKAPKLLIYNAKTLAKGVPSRFSGSGSGTDFTLTISSLQPEDFATYYCQHHYESPLTFGGGTKVEIKR", 370000),
    ("Ha103L0 (Ha103-SKSC / L0) (antibody, V domains shown) VH: QVQLVQSGAEVKKPGASVKVSCKASGYTFTGYIINWVRQAPGQGLEWMGLINPYNGGTSYNQKFKGRVTITADESTSTAYMELSSLRSEDTAVYYCARDGYDDGPYTMDYWGQGTLVTVSS VL: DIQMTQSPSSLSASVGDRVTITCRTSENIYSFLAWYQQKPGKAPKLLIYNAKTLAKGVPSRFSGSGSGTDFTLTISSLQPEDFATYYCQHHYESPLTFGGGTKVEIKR", 220000),
    ("H0La134 (H0-SKSC / La134) (antibody, V domains shown) VH: QVQLVQSGAEVKKPGASVKVSCKASGYTFTGYIMNWVRQAPGQGLEWMGLINPYNGGTSYNQKFKGRVTITADESTSTAYMELSSLRSEDTAVYYCARDGYDDGPYTMDYWGQGTLVTVSS VL: DIQMTQSPSSLSASVGDRVTITCRTSENIYRFLAWYQQKPGKAPKLLIYNAKTLAKGVPSRFSGSGSGTDFTLTISSLQPEDFATYYCQHHYESPLTFGGGTKVEIKR", 250000),
    ("H0La303 (H0-SKSC / La303) (antibody, V domains shown, also called Ls303) VH: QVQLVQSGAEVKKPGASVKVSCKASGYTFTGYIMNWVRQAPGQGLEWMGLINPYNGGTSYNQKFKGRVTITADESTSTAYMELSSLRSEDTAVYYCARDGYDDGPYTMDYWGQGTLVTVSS VL: DIQMTQSPSSLSASVGDRVTITCRTSENIYSFLAWYQQKPGKAPKLLIYNAKTLAKGVPSRFSGSGSGTDFTLTISSLQPEDFATYYCQHHYDSPLTFGGGTKVEIKR", 220000),
    ("Ha101L0 (Ha101-SKSC / L0) (antibody, V domains shown) VH: QVQLVQSGAEVKKPGASVKVSCKASGYTFTGYVMNWVRQAPGQGLEWMGLINPYNGGTSYNQKFKGRVTITADESTSTAYMELSSLRSEDTAVYYCARDGYDDGPYTMDYWGQGTLVTVSS VL: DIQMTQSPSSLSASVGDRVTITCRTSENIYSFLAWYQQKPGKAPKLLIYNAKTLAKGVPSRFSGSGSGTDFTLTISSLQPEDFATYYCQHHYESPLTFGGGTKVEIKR", 200000),
]

Ref: patent US20110129459A1
